System: T47D
Assay Comment: NCI tumour cell line growth inhibition, 48 h
The source made the active and inactive calls. No stated cut-off is given here; in the data, active = GI50 up to about 1.1 µM and inactive = higher.
Log the outcome using a class from active, inactive

Query block: Query: recorded result category for NC(=O)C(C(N)=O)=C(O)/C(O)=C/C(=O)c1ccccc1 in this test
Result block: inactive

Query block: Query: recorded result category for CN1C(=O)c2ccccc2NC(=O)C12O[C@@H]2c1ccccc1 (stereo partly specified) in this test
Result block: inactive

Query block: Query: recorded result category for CC(=O)c1ccc(Nc2c3ccccc3nc3occc23)cc1 in this test
Result block: active

Query block: Query: recorded result category for CC1COC(c2cn[nH]c2C(N)=O)C1O (stereo unspecified) in this test
Result block: inactive

Query block: Query: recorded result category for CC1(C)OP(=O)(O)C=C1Sc1ccc([N+](=O)[O-])cc1[N+](=O)[O-] in this test
Result block: inactive

Query block: Query: recorded result category for N#Cc1nc(-c2ccco2)oc1N in this test
Result block: inactive

Query block: Query: recorded result category for O=C(O)C[S+]([O-])c1ccc2c3c(cccc13)C(=O)c1ccccc1-2 (stereo unspecified) in this test
Result block: inactive

Query block: Query: recorded result category for CCCCC1(NN=C2CCCCC2)C(=O)N(c2ccccc2)N(c2ccccc2)C1=O in this test
Result block: inactive

Query block: Query: recorded result category for C=C1c2c(n(S(=O)(=O)c3ccccc3)c3ccccc23)[C@@]2(C(=O)OC)CC3C=CC2N1C3 in this test
Result block: inactive

Query block: Query: recorded result category for CC1=C/C(=N\NS(=O)(=O)c2ccc([N+](=O)[O-])cc2)CC(C)(C)C1 in this test
Result block: inactive

Query block: Query: recorded result category for CC(C)C1=C2CCC3(C)C(CCC4C5C6OCC5(CCC6(C)C)CCC43C)C2(C)CC1 (stereo unspecified) in this test
Result block: inactive

Query block: Query: recorded result category for C=CCOC(=O)CC[C@H](NC(=O)[C@@H](CCC(F)(F)F)Cc1ccc(O)cc1)C(=O)OCC=C in this test
Result block: inactive

Query block: Query: recorded result category for Oc1ccc2c(c1)-c1c(c3ccccc3n1CCN1CCOCC1)CC2 in this test
Result block: inactive

Query block: Query: recorded result category for CC(C)n1c(=O)c2nn3c(=O)n(C(C)C)c(=O)c3nn2c1=O in this test
Result block: inactive

Query block: Query: recorded result category for CC1CC(Br)C(=O)O1 (stereo unspecified) in this test
Result block: inactive

Query block: Query: recorded result category for COc1cc2c(cc1OC)-c1cc3ccccc3c(=O)n1CCC2 in this test
Result block: inactive

Query block: Query: recorded result category for COC(=O)[C@H](Cc1ccccc1)NC(=O)[C@H](Cc1ccccc1)NC(=O)[C@@H]1CCCN1C(=O)N[C@H]1C2C=CC(C2)C1C(=O)N1CCC[C@H]1C(=O)N[C@@H](C)C(=O)N[C@H](C(=O)OC)C(C)C (stereo partly specified) in this test
Result block: inactive

Query block: Query: recorded result category for Cc1cn(CC2=NCCN2)c(=O)[nH]c1=O in this test
Result block: inactive

Query block: Query: recorded result category for O=S(=O)(Nc1ccccc1S(=O)(=O)c1ccccc1)c1ccccc1 in this test
Result block: inactive

Query block: Query: recorded result category for CNC(=S)N/N=C(\C)c1cc(OC)c(OC)cc1O in this test
Result block: inactive

Query block: Query: recorded result category for Oc1ccc(-c2nc(-c3ccc4ccccc4n3)c(-c3ccc(F)cc3)[nH]2)cc1 in this test
Result block: inactive

* * *

Tested on: SNB-19
Assay Comment: NCI tumour cell line growth inhibition, 48 h
Calls of active or inactive are those of the source. No stated cut-off is given here; in the data, active = GI50 up to about 1.1 µM and inactive = higher.
Test Readout: GI50

GET /value?item= C=Cc1ccccc1C1(O)C=CC(OC)(OC)C=C1 &field=GI50 returns 15.8 µM (inactive)

GET /value?item= NC1CCC[C@H]1O (stereo partly drawn) &field=GI50 returns > 100 µM (inactive)

GET /value?item= COc1ccccc1N=C(S)Nc1ccccn1 &field=GI50 returns 73.8 µM (inactive)

GET /value?item= COC(=O)C1Cc2c(n(C)c3ccccc23)C(CCC(=O)O)N1Cc1ccccc1 (stereo not drawn) &field=GI50 returns 33.2 µM (inactive)

GET /value?item= O=C1CC(c2ccccc2)n2c(nc3ccccc32)N1 (stereo not drawn) &field=GI50 returns > 100 µM (inactive)

GET /value?item= N#Cc1c(N)nc(SCc2ccccc2)c(C#N)c1-c1ccc(O)cc1 &field=GI50 returns 17.3 µM (inactive)

GET /value?item= C=CCNC(=S)NC=C(C(N)=O)C(N)=O &field=GI50 returns > 100 µM (inactive)

GET /value?item= NNc1nc2ccccc2s1 &field=GI50 returns > 100 µM (inactive)

GET /value?item= C=CCc1cccc2cc(C(=O)Nc3nc(C45CC6CC(CC(C6)C4)C5)cs3)c(=O)oc12 &field=GI50 returns 26.1 µM (inactive)

GET /value?item= Cc1c(C(=O)/C=C/C=C/c2ccccc2)[n+]([O-])c2ccccc2[n+]1[O-] &field=GI50 returns 35.5 µM (inactive)

GET /value?item= CC1CC(Br)C(=O)O1 (stereo not drawn) &field=GI50 returns > 100 µM (inactive)

GET /value?item= C/C=C1\Oc2ccc(OC)cc2S1(=O)=O &field=GI50 returns > 100 µM (inactive)

GET /value?item= CCOC(=O)N(CC)c1c(C(F)(F)F)cc(-c2ccccc2)[nH]c1=O &field=GI50 returns > 100 µM (inactive)

GET /value?item= COc1cc(C(C)O)c[n+](Cc2ccccc2)c1 (stereo not drawn) &field=GI50 returns > 100 µM (inactive)

GET /value?item= CCOC(=O)c1c(C)n(-c2ccc(C)cc2)c2c1cc(O)c1[nH]c3c(c12)CCCC3 &field=GI50 returns 19.4 µM (inactive)

GET /value?item= CN(/N=C\c1ccnc2ccccc12)c1ccc([N+](=O)[O-])cc1 &field=GI50 returns > 100 µM (inactive)

GET /value?item= CC/C(=C(\c1ccccc1)c1ccc(OCC[N+](C)(C)C)cc1)c1ccccc1 [TAMOXIFEN METHYL IODIDE] &field=GI50 returns 17.4 µM (inactive)

GET /value?item= N#Cc1c(-c2ccc(F)cc2)c(-c2ccc(F)cc2)nn(CCO)c1=O &field=GI50 returns 4.9 µM (inactive)

GET /value?item= Oc1cc(-c2ccc(Cl)cc2)cn2c1nc1ccccc12 &field=GI50 returns 52.4 µM (inactive)

GET /value?item= COC1CCC(=C2C(=O)OC(C)(C)OC2=O)N1 (stereo not drawn) &field=GI50 returns > 100 µM (inactive)

GET /value?item= CC(C)(C)OC(=O)C#CC[C@H]1CCCC1/C=C/C(O)=C1/C(=O)NC(CCCNC(=O)OC(C)(C)C)C1=O (stereo partly drawn) &field=GI50 returns 30.6 µM (inactive)

GET /value?item= CCOC(=O)c1cc2c3c(c(O)c(OC)c2s1)N(C(=O)c1cc2c4c(c(O)c(OC)c2s1)N(C(C)=O)CC4)CC3 &field=GI50 returns > 100 µM (inactive)

GET /value?item= N#Cc1ncc(C(Cl)Cl)nc1Cl &field=GI50 returns 6.38 µM (inactive)

* * *

Tested on: OVCAR-3
Assay Comment: NCI tumour cell line growth inhibition, 48 h
Active and inactive are the calls of the source. Cut-off read from the data, not from the text of the source: active = GI50 up to about 1.1 µM and inactive = higher.
Log the outcome using a class from class 1 for active, class 0 for inactive

Query block: Query: recorded result category for CCCC/C=C1\CCC(CN2CCCCC2)C1=O (configuration not stated) in this test
Result block: class 0

Query block: Query: recorded result category for CC1CC(Br)C(=O)O1 (configuration not stated) in this test
Result block: class 0

Query block: Query: recorded result category for NC1CCC[C@H]1O (some centres not stated) in this test
Result block: class 0

Query block: Query: recorded result category for Cn1c(=O)cc2[nH]c3ccccc3n2c1=O in this test
Result block: class 0

Query block: Query: recorded result category for Nc1nc(Br)nc2ncn(C3CC(O)C(CO)O3)c12 (configuration not stated) in this test
Result block: class 0

Query block: Query: recorded result category for O=C1Nc2ccccc2/C1=N/NC(=S)Nc1cccc(Cl)c1 in this test
Result block: class 0

Query block: Query: recorded result category for CC(=O)N1C(Nc2cccc3nc(C)ccc23)CCN1c1ccccc1 (configuration not stated) in this test
Result block: class 0

Query block: Query: recorded result category for CCN(CC)C(=O)N1CN(c2ccccc2)C2(CCN(CCCC3(c4ccc(F)cc4)OCCO3)CC2)C1=O in this test
Result block: class 0

Query block: Query: recorded result category for CC(C)C(=O)NCC[C@@H](CNC(=O)OC(C)(C)C)NC(=O)OC(C)(C)C in this test
Result block: class 0

Query block: Query: recorded result category for Cc1cccc(C(C)(C)C)c1NC(=O)CC1C(=O)Nc2ccccc2[S+]1[O-] (configuration not stated) in this test
Result block: class 0

Query block: Query: recorded result category for CCCCC(C(=O)C(=O)Nc1ccccc1CC)C(=O)C(C)C (configuration not stated) in this test
Result block: class 0

Query block: Query: recorded result category for CC1=C/C(=N\NS(=O)(=O)c2ccc([N+](=O)[O-])cc2)CC(C)(C)C1 in this test
Result block: class 0

Query block: Query: recorded result category for C=C1CC2(CCCC3(CC(=C)C(=O)O3)C2(C)C)OC1=O (configuration not stated) in this test
Result block: class 0

Query block: Query: recorded result category for NNC(=O)c1c(-c2cccnc2)cnc2ccccc12 in this test
Result block: class 0

Query block: Query: recorded result category for COc1ccc(-c2nc(SCC(=O)N/N=C/c3ccc([N+](=O)[O-])cc3)[nH]c2-c2ccc(OC)cc2)cc1 in this test
Result block: class 0

Query block: Query: recorded result category for CCOC(=O)c1c(C)n(-c2ccc(C)cc2)c2c1cc(O)c1[nH]c3c(c12)CCCC3 in this test
Result block: class 0

Query block: Query: recorded result category for COc1ccc(Cc2cc3c(cc2OCC(=O)O)OCO3)cc1 in this test
Result block: class 0

Query block: Query: recorded result category for CCOC(=O)Nc1nn(C)/c(=N/Cc2ccccc2)s1 in this test
Result block: class 0

Query block: Query: recorded result category for COCCN(C(=O)c1ccccc1)C1CCC2(SCCS2)c2[nH]c3ccccc3c21 (configuration not stated) in this test
Result block: class 0

Query block: Query: recorded result category for Cc1ccc(C(=O)Nc2ccc(CP(=O)(O)O)cc2)cc1NC(=O)c1cccc(N)c1 in this test
Result block: class 0

Query block: Query: recorded result category for C[C@@]1(CO)[C@H](O)CC[C@@]2(C)[C@H]1CC[C@H]1C[C@@H]3C[C@@]12CC[C@@]3(O)COC(=O)CN in this test
Result block: class 0

Query block: Query: recorded result category for COc1cccc2c1C(=O)c1c(O)c3c(c(O)c1C2=O)C[C@@](O)(C(C)=O)C[C@@H]3OC1OC(C)C(O)C(N)C1Br (some centres not stated) in this test
Result block: class 1
